The measured values listed here are drawn from the NTF2 design screens of Basanta et al. (2020).

test: protease stability score; higher = more stable; yeast display proteolysis, trypsin and chymotrypsin
observed.property: protease stability score
Number only, no unit.

Worked examples, 2 sequences total:
SEDEKMTEMALRLFMHTWRTGDEQVFRHLADPDYRLEVNGVEFIGWEQVTELFSRIVKRFDHMHIHLREFDDINGQADVRGTLILIQGDKEIRMETHIISKKFNGRWTHRRVHFH : 0.428
TEEERLHHELAKLMIHLMHTGDFDKLIKLVDPHAKLDEDVDGREVHVHGMEKWFEYLKEKFERIKNITIHIRDWRVYNGRVEIHVEYDINGKHVDTTIRLDVVNGRVKRIQIEQK : 2.16

-- ask Look up protease stability score for this sequence: SERRERLEVLSEILLRAWETGDEQELVENADPHTKLEVHQGDKEKHFHGWELILKHIYQIKNVKIHIEHVHIQGDKIENHVKLNINGKRIEVEITVWVVDGVIKHMEVRIK
-- reply 1.93

---

Listing of recorded protease stability score by entry.
assay: protease stability score; higher = more stable; yeast display proteolysis, trypsin and chymotrypsin;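 also: relative to predicted unfolded state with 0 unfolded-like and 1 meaning tenfold more protease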
Number only, no unit.

SEEEKLLTDWLRELEEVTRTGDEESIMRMVDPNDKMDVGDKHRHGMHAQEVWIEVFRRQFGIDNFEVRLIINHRRIVDGQAHVDGELQLIYNGRTTSLRIELIIDKFDGRWLISSIRYN : 1.19
SDEHERLKRFAEEWIRAVITGDFDRLYELMDPHARYHQGDKNHHGRDQIRHFLHRFKNIRIDYHRIELIGDKVHMDGWINYDGKEVETKITVHVIDGRVHIIHVWEI : 1.39
SEKDDFLEQLQKLWHEILVTGDEHRLKKLADPDMRFIYGDFESIGREEFLQMMRDMLREIRITHIELRTFDAYDGQLIILTTQHVSIGDKRIELTVHLFWIKVDGKWKLRRLKFE : 1.79
SEDEEDARRMVEIWKRSLETGDFKRILELMDPNTKYLFNGREYHGRHFVSRLFTEELERIKGARIEEESLEIQGNKVILHTRLHINGQHFKQITIIMKIDGKWFLESFSVE : 2.01
DEKEEHLDELARLFWEVHHTGNEEVFEELFDPRMRLIFNGQQYIGMEKAVKIESRVKNITVRLETYRVINGRIEIHENWRQGEKEIKFEIRIVVIDGVAKEMERIFREK : 1.09

Please find the next sequence below.
-- ask Look up protease stability score for this sequence: NEDEEMIKTAIELLLRTWKTGDEHSLTELLDPHVRVHINGVDLHGRHAIHWLSRHMRFEEIRVDHFEIVNGRVHLETKVRIHYGDKSDTVESHVISLKVDGKWKTQRVQYH
-- reply 0.954

---

experiment: protease stability score; higher = more stable; yeast display proteolysis, trypsin and chymotrypsin;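 also: relative to predicted unfolded state with 0 unfolded-like and 1 meaning tenfold more protease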
Listing of recorded protease stability score by entry.
Number only, no unit.

Worked examples, 4 sequences total:
DEEKEDIERYNRLYFNASTTGDEDTLKRLADPHVRIHVGDKDQVGMEHLSTRLLELRIEVEFDHRHIEVQGDKVTVDGTLTLHIEIGEKRYERRVDLILHWHKIDGRWLIEQVDML : 1.27
SEEEEVLRHLSKTFTRAMLTGDWKFLFEFADPHVRNDVGDWTRIGMHSMIELLELLHRELRITHLHIDEVRVIGNKAEWEGRNNVRINGQEDKRDVRLELEIVDGKMSLVNVEFK : 0.364
DEMDEISKEAWRMLKEITRTGDEDLMHKNVDPNARVIYGDKVVHGRERVTKILVEMRIDHEEHRDSRVVGNKVELDVHFDGEFDGRRFRTDVHWVIVKINGQWRIKEHVIL : 1.22
DEFHELARHALKLFKDTMDTGDEHTLEHLVDPNVRLLVDGQEIHGREAMEEFWRRVPNLRLYFHDVRVIGDKIIVDGKIEYGDKEIDSRIYLRKINGRWRFESVELR : 1.4

-- ask Look up protease stability score for this sequence: HEDNDIMEKAMEDILEKIVTGDEDFLREQMDPHVRSVDIINGRRIERHGREDILELLRRLGFDHVRLERYDIQGDKLIVHSKFTYGDKETELRIIIWKVNGRWVFHSVEVIIL
-- reply 1.87

-- ask Look up protease stability score for this sequence: SEEDRDMEHVINVLRHLMVTGDEEELTKMADPTAYSDVNGVELHGREAFSRIVKLMGVKHVEIRDFTVQGDKVDVDGETRFENHHRFSIIHLRKINGRWYIERMRLE
-- reply 0.771

-- ask Look up protease stability score for this sequence: DDRYRLVEHMSRHFFENWLTGDFDRLVELADPTVRSHFEYGDKEILNIGMEEHVKMERHWREKMGANHLFLDDVRIQGNKAHIHGQLDVGDKHNRARLELNIVDGRIKEIYIEIR
-- reply 0.018

-- ask Look up protease stability score for this sequence: DETEDTIHEAVKEFVTALMTGDEELLQKLMDPRTRLDYNGREIHGREEVIRLLLEMRIHHVEIKRIEIQGNKVHVDVKVDGEFNGQRRETKTIINATKINGRWVVQELVIR
-- reply 2.26

-- ask Look up protease stability score for this sequence: SEEKKHVEEVARHILHLFLTGDEELWSNMADPNMRYLWNGREIVGRDLVREQNKELRTHSIEITHIEVFDGRARVRVNVDYQIGDKRINTHSLVIIVIINGRIESVFIKHD
-- reply 1.27

-- ask Look up protease stability score for this sequence: DEKQRDIEEMARRFVEIFHTGDEENYLELADPDMRLDVGDKHYHGREDVHKWLHEELRRIKNATIRIKHIHVQGDKVHLEITIEIGDKHRKSHIHLQIVDGVIKRIEIRWS
-- reply 1.09

-- ask Look up protease stability score for this sequence: DEEEEYAIEFVILHIEALKTGDERKLEHLMDPHYKLDYNGRKVHGREQWLRFLNEWRVHIHDIKVDDHDVVNGRVILHVTIHGTVIFDGRNIRTHHEQEYVLHKVNGRWHFHSMIVR
-- reply 1.5

---

assay: protease stability score; higher = more stable; yeast display proteolysis, trypsin and chymotrypsin;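 also: relative to predicted unfolded state with 0 unfolded-like and 1 meaning tenfold more protease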
observed.property: protease stability score

Worked examples, 2 sequences total:
DEEKEISELLFRLIFHMLETGDEELSRRLLDPNTRTIWNGRHLHGREASELMRRILHHFVKGATTEIKDLKVQGDWMHFHVTIHIGDKRIRTEIIVHTIDGRIDSMEFRVT : 1.39
DEMQEVLERFAHEWFHNLHTGDEDTLLKLADPNVRVHVGDKDLIGRELWKEELHKMKGLKLELHDYHAINGRIHLDVTQKFNGKEVELEMDIIVVNGRVKEIRHQRR : 1.06

-- ask Look up protease stability score for this sequence: DEDDEMWRELFEMYIRLARTGDEKADELLMDPDARIEIGDKRWHGREWTHFFLERVDHVHRVEFRVDDRRIQGDKVDVDGTFILDIHQGDKRIHTSIRSHLTVLKVDGKWRVHQMELR
-- reply 1.73

---

Listing of recorded protease stability score by entry.
assay: protease stability score; higher = more stable; yeast display proteolysis, trypsin and chymotrypsin;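 also: relative to predicted unfolded state with 0 unfolded-like and 1 meaning tenfold more protease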
Number only, no unit.

EEEKRISDRSLEHLVRSWWTGDEQLYTELADPNVRVEIGDKEYHGREDARHALRRELEHIRIKHIVYRRFEFVGEYIHVDTRMLVDVNGVHILRTMHILEFKFDGRWHLTSLIIR : 1.21
DEMDHWVMEMFEHLLKLFLTGDEEKWERLADPNVKTRFIINGKDVRLHGREHFKKLVDELRITSVDLRDIRAVGNKAEVEGRVEGEFDGQTHILDMRVRFEIINGKLKKEEYVIR : 1.27
DEYEREYKKFIDDMLHAWLTGDEDTLQELVDPNARLHFNGQELHGRDIWLRNYREHGMKVKSYHIEHREIQGEKIIIRGRLNGHVNGRNSNMDIILIIEKVDGRWVMQDIRIS : 1.98
DDEEEINRRIAETFINNVKTGDEHSMREMMDPNTRLIVGDKHNHGWKEVEKFWREWRRHAGVDHIHVDDVRVIGNKVEIDETINQGDKFRDVRISIITINGRITELRIEIR : 1.49
SEDIELVHNIMEHMAKAFTTGDERHLLNLFDPNVRFMINGQNYVGWEHLINWIEHIRIKRVDLRINDVKLIGDKLHIHGRFIVRGQIDGREIDRVEDTRINFQKINGRWIIEELHFV : 2.61

-- ask Look up protease stability score for this sequence: SESHNFFKWALEVLLLSLRTGNERHLETLADPNMRVYINGREHHGRQMYFEMVFRWIEKFPNIQIHIHIEDTRVQGDKVHVDGEYQERFNGKTFVEKVHIIMLKIDGKWVLERDEII
-- reply 1.6

-- ask Look up protease stability score for this sequence: DEEKHELEERVRLHIERWKTGDEDTLRHYADPDVRTHIDVGDKKFNYHGREEIVQAYKHLLDQLGVKHSEIDRSTAVNGVVHLHMTLRFDGVRMEWRIDIWIIDGRTKTIHIEIRHR
-- reply 0.942

-- ask Look up protease stability score for this sequence: SNEDEIAQHLVRLILNAHLTGDEKLLETLADPTMRFTLRIGDKQHERHGREEWIKWVRHTIERIDHIEIRIDDRRIQGDKIEIDGTLRLEIGDKVNQVRVDIIIHLVNGRLKEVIIEVV
-- reply 2.06

-- ask Look up protease stability score for this sequence: SEEEENIEHSLRIMNENLETGDEHSLAELFDPNAKIDIGDKHLHGRETLITHLVLLGIKHSSIINREYHMIGEWAHINGDLRIEIGDKERHHDVRILSRKIDGRWVVTEFHIR
-- reply 1.19

-- ask Look up protease stability score for this sequence: TEDERDAKRMAETMVKLWETGDWRTLFELADPDMRFEYGDKRFHGREKLIKVLRDIFERLGIDHSHVRDFKIIFVGEKVEVRLDIETHFDGRTEEFHIEINVRKIDGRWRLKSMHIEIR
-- reply 2.02

-- ask Look up protease stability score for this sequence: DKEEEDVKKFTDEFIHHYLTGDWEKIRELADPNVRLIVGDKTLHGRELFIDWLRDELRRIDHIEHHVHRMSVINGKVHIDAELRIYINGRLHQTRIEIHLVIIDGRMRMVELRFR
-- reply 2.13
